For each of the compounds below, state its RMFI (relative maximum fold induction).
# TARGET_UNDER_TEST: wild-type Choristoneura fumiferana EcR (D, E and F domains) (Choristoneura fumiferana)
# Format: cell-based
# REPORTED_CONDITIONS: rac; WT-CtEcR, 3T3 Cells; relative to GS-E ligand
Enter the number alone.

Task: Give its RMFI (relative maximum fold induction) value. Item: C=CCC(CCc1ccccc1)N(NC(=O)c1ccc(CC)cc1)C(=O)c1cc(C)cc(C)c1 (racemic) [rac-62]
Output: 0.06

Task: Here is the next compound: CCCC(N(NC(=O)c1ccc(C)cc1)C(=O)c1cc(C)cc(C)c1)C(C)(C)C (racemic) [rac-11]
Output: 0.66

Task: Here is the next compound: CCCC(N(NC(=O)OC(C)(C)C)C(=O)c1cc(C)cc(C)c1)C(C)(C)C (racemic) [rac-49]
Output: 0.02

Task: Here is the next compound: CCCC(N(NC(=O)c1ccccc1F)C(=O)c1cc(C)cc(C)c1)C(C)(C)C (racemic) [rac-5]
Output: 0.59

Task: Here is the next compound: CCCC(N(NC(=O)c1cccc(Cl)c1)C(=O)c1cc(C)cc(C)c1)C(C)(C)C (racemic) [rac-10]
Output: 0.50

Task: Here is the next compound: C=CCC(C1CCCCC1)N(NC(=O)c1cccc(OC)c1C)C(=O)c1cc(C)cc(C)c1 (racemic) [rac-60]
Output: 0.49

Task: Here is the next compound: CCCC(N(NC(=O)c1cccc2ccccc12)C(=O)c1cc(C)cc(C)c1)C(C)(C)C (racemic) [rac-23]
Output: 0.60

Task: Here is the next compound: CCCC(N(NC(=O)c1cccc(OC)c1)C(=O)c1cc(C)cc(C)c1)C(C)(C)C (racemic) [rac-9]
Output: 0.84
